assay_method_text: AUC (0 to t) in Sprague-Dawley rat at 10 mg/kg, iv measured upto 24 hrs LC-MS/MS analysis
Assay type: ADME, organism-based
applied_conditions: Sprague-Dawley, in vivo
observation_type: AUC(0-t) at 24 h (ng·h/mL)

{"compound_structure_string": "Cc1nc(-c2ccc(CSSC(C)(C)C)cc2)ncc1C(=O)N[C@@H](CCN)C(=O)N(C)[C@@H]1C(=O)N[C@@H](C)C(=O)N[C@H](C(=O)NCC#N)Cc2ccc(OCCN)c(c2)-c2cc1ccc2OCCN", "unit_text": "ng·h/mL", "AUC(0-t) at 24 h": 142000}
{"compound_structure_string": "CCCSSCc1ccc(-c2ncc(C(=O)N[C@@H](CCN)C(=O)N(C)[C@@H]3C(=O)N[C@@H](C)C(=O)N[C@H](C(=O)NCC#N)Cc4ccc(OCCN)c(c4)-c4cc3ccc4OCCN)c(C)n2)cc1", "unit_text": "ng·h/mL", "AUC(0-t) at 24 h": 15300}

(a) CCCCSSCc1ccc(-c2ncc(C(=O)N[C@@H](CCN)C(=O)N(C)[C@@H]3C(=O)N[C@@H](C)C(=O)N[C@H](C(=O)NCC#N)Cc4ccc(OCCN)c(c4)-c4cc3ccc4OCCN)c(C)n2)cc1
(b) Cc1nc(-c2ccc(SSC(C)(C)C)cc2)ncc1C(=O)N[C@@H](CCN)C(=O)N(C)[C@@H]1C(=O)N[C@@H](C)C(=O)N[C@H](C(=O)NCC#N)Cc2ccc(OCCN)c(c2)-c2cc1ccc2OCCN
[in] Which record shows the lower AUC(0-t) at 24 h: the first, a , or the second, b ? State your choice using its label.
[out] a
(a: 46300 ng·h/mL, b: 170000 ng·h/mL)

Ref: ChEMBL document CHEMBL5518248
